target: PvPI4K (Plasmodium vivax); test: biochemical; settings: purified recombinant PvPI4K, 10 μM ATP, ADP-Glo; mean of N ≥ 2; read-out: PvPI4K IC50 ± SD
Sequence (A5KB26 entry or part of it): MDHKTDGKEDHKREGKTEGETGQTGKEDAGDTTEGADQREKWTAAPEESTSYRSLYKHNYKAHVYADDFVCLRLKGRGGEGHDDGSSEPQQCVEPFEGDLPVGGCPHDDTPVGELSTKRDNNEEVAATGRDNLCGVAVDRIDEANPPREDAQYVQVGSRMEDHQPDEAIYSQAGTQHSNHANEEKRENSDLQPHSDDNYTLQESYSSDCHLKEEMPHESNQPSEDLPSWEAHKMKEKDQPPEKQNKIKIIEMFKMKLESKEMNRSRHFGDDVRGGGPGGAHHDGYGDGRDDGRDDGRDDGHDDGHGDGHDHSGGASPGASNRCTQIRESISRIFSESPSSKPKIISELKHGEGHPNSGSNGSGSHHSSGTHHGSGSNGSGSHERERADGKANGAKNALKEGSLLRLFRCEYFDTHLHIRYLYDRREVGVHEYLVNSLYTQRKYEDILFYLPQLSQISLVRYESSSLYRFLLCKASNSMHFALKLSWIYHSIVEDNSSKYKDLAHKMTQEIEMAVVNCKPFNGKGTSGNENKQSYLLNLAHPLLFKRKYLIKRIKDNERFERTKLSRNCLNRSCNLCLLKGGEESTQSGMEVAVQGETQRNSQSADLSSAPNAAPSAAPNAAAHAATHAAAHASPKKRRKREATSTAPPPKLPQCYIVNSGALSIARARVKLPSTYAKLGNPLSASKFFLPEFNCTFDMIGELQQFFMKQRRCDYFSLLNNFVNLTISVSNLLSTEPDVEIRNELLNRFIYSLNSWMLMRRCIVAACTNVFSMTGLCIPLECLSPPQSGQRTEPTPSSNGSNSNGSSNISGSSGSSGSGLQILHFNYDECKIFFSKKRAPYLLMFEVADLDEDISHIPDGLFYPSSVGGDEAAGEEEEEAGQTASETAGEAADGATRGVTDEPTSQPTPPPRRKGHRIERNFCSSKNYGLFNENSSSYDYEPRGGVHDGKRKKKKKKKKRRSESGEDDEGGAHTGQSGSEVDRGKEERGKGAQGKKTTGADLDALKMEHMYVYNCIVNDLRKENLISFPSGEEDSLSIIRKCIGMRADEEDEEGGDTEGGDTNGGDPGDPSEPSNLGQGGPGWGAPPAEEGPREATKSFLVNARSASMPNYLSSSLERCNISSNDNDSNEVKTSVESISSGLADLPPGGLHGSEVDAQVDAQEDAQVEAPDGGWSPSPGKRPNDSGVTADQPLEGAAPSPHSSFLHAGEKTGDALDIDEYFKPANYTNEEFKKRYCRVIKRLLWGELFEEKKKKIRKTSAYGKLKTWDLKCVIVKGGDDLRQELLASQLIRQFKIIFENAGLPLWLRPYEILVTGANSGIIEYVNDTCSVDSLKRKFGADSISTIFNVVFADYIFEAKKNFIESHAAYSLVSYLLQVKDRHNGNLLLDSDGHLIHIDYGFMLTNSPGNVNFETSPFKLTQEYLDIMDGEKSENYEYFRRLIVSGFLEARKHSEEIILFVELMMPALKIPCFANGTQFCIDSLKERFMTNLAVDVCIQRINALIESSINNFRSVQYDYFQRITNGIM
REPORTED ENDPOINT: IC50
Answer format reminder: number followed by unit.

Fill blank: measured IC50 of the molecule CS(=O)(=O)c1cccc(-c2ccc3nccc(NC4CCCNC4)c3n2)c1 (stereo not shown) [Compound 8] is ____.
151 nM

Fill blank: measured IC50 of the molecule CN1CCC(Nc2ccnc3ccc(-c4cccnc4)nc23)CC1 [Compound 29] is ____.
64 nM

Fill blank: measured IC50 of the molecule FC(F)(F)c1ccc(-c2ccc3nccc(N[C@@H]4CCNC4)c3n2)cn1 [Compound 16] is ____.
66 nM

Next item in the queue.
Fill blank: measured IC50 of the molecule CNC(=O)c1ccc(-c2ccc3nccc(NC4CCN(C)CC4)c3n2)cn1 [Compound 33] is ____.
77 nM
